Test system: Malate dehydrogenase and diaphorase
ASSAY_TEXT: Formation of formazan dyes: Malate dehydrogenase, diaphorase and malate (TABLE 10)
Assay type: biochemical, pig heart
RUN_CONDITIONS: Malate dehydrogenase, diaphorase and malate; 6 h
Please respond with true when measured Formation of formazan dyes, absorbance, Means 6 h is strictly beneath 3, and with false in all other cases.

[[record]]
molecular_string = "O=[N+]([O-])c1ccc(-[n+]2nc(-c3ccc(S(=O)(=O)[O-])cc3S(=O)(=O)[O-])nn2-c2ccc(I)cc2)cc1.[Na+]"
class_assignment = "true"


Task: # TODO verify Formation of formazan dyes, absorbance, Means 6 h < 3 strictly for this compound: COc1cc([N+](=O)[O-])ccc1-[n+]1nc(-c2ccc(S(=O)(=O)[O-])cc2S(=O)(=O)[O-])nn1-c1ccc([N+](=O)[O-])cc1.[Na+]
Output: false

Task: # TODO verify Formation of formazan dyes, absorbance, Means 6 h < 3 strictly for this compound: COc1cc(-c2ccc(-[n+]3nc(-c4ccc(C(=O)N(CCS(=O)(=O)[O-])CCS(=O)(=O)[O-])cc4)nn3-c3nc4ccccc4s3)c(OC)c2)ccc1-[n+]1nc(-c2ccc(C(=O)N(CCS(=O)(=O)[O-])CCS(=O)(=O)[O-])cc2)nn1-c1nc2ccccc2s1.[Na+].[Na+]
Output: true

Task: # TODO verify Formation of formazan dyes, absorbance, Means 6 h < 3 strictly for this compound: Cc1nc(-[n+]2nc(-c3cccc(OCC(=O)O)c3)nn2-c2ccc(S(=O)(=O)[O-])cc2)sc1C
Output: false

Task: # TODO verify Formation of formazan dyes, absorbance, Means 6 h < 3 strictly for this compound: COc1cc([N+](=O)[O-])c(S(=O)(=O)[O-])cc1-n1nc(C(=O)Nc2ccccc2)n[n+]1-c1cc(S(=O)(=O)O)c([N+](=O)[O-])cc1OC
Output: false
